Reference source: the supplement of paper PMC7877785

Entries and their self-splicing fitness (ln) values follow.
Experiment: self-splicing fitness, log relative to wild type (ln ratio); higher = more splicing; Tetrahymena group I intron in knt gene, E. coli kanamycin selection, DiMSum; sequences stand for … in CUCUCU…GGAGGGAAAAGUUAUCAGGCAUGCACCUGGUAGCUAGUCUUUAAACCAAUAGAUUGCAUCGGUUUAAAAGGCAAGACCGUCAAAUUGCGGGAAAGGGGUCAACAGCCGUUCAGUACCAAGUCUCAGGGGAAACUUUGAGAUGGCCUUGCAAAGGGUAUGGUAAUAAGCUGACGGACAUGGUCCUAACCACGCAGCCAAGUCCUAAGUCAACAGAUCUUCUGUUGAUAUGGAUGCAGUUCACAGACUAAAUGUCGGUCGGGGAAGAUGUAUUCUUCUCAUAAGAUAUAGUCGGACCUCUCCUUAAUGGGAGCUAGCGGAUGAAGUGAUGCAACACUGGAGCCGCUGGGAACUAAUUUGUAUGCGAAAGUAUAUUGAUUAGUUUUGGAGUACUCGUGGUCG;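 further: selection with 25 µg/mL kanamycin versus none on LB agar overnight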
Conditions: 37 °C
Number only, no unit.

Some sequences with recorded self-splicing fitness (ln):
residues=AAUUAGCAAUAUUACGGUCC quantity_kind="self-splicing fitness (ln)" data_value=0.122
residues=UCCGAGCAAUAUUACGGAGA quantity_kind="self-splicing fitness (ln)" data_value=-1.7

Find the recorded self-splicing fitness (ln) belonging to GAUUAGCAAUAUUACGUCUG and report it.
-1.19

Find the recorded self-splicing fitness (ln) belonging to AACGAGCAAUAUUACGUUCU and report it.
-1.93

Find the recorded self-splicing fitness (ln) belonging to GGGGAGCAAUAUUACGUCCA and report it.
-0.145

Find the recorded self-splicing fitness (ln) belonging to GAUCAGCAAUAUUACGCCUC and report it.
-0.876

Find the recorded self-splicing fitness (ln) belonging to AGUAAGCAAUAUUACGACCC and report it.
-0.157
